Sourced from paper PMC13476069

- target_under_test: human GPR30 N276^6.52A mutant (Homo sapiens, UniProt Q99527, N276A)
- Sequence (Q99527 whole entry N276A): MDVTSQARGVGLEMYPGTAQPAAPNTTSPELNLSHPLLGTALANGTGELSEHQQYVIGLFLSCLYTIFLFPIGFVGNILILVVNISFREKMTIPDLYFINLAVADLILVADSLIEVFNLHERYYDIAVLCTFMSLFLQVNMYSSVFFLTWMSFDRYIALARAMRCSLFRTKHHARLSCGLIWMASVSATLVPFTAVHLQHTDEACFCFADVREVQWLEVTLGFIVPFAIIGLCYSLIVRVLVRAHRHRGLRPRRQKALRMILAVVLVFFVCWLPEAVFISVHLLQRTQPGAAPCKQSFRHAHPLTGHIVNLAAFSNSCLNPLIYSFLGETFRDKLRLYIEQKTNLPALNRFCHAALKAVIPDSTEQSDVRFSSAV
- measurement_parameters: stable HEK293, HA-tagged N276^6.52A; NaHCO3; four-parameter fit
- Description: Human Gpr30 cDNA was obtained from human hepatoblastoma-derived HepG2 cells. […] Stable HEK293 cells (2×10^4 cells/well) were seeded into a black wall and clear bottom 96-well plate 24 hr before the assay. […] The fluorescence intensity was analyzed using FlexStation 3 (Molecular Devices, Ex/Em = 490/525 nm). […] Nonlinear regression (four-parameter) was used for curve fitting, and EC50 and Top (maximum response) were calculated. […]

- molecule: "O=C(O)O [bicarbonate]"
  EC50 (µM): 2890

---

- target_under_test: human GPR30 Q296^ECL3A mutant (Homo sapiens, UniProt Q99527, Q296A)
- Sequence (Q99527 whole entry Q296A): as the sequence (Q99527 whole entry N276A) above, with A276N, Q296A counted along it
- measurement_parameters: stable HEK293, HA-tagged Q296^ECL3A; NaHCO3; four-parameter fit

- compound: "O=C(O)O [bicarbonate]"
  endpoint_unit: "mM"
  EC50: 3.09

---

- target_under_test: human GPR30 E218^5.42A mutant (Homo sapiens, UniProt Q99527, E218A)
- Sequence (Q99527 whole entry E218A): as the sequence (Q99527 whole entry N276A) above, with E218A, A276N counted along it
- measurement_parameters: stable HEK293, HA-tagged E218^5.42A; NaHCO3; four-parameter fit

- compound: "O=C(O)O [bicarbonate]"
  target_under_test: "human GPR30 E218^5.42A mutant (Homo sapiens, UniProt Q99527, E218A)"
  endpoint_unit: "mM"
  EC50: 3.72

---

- target_under_test: human GPR30 Q138^3.33A mutant (Homo sapiens, UniProt Q99527, Q138A)
- Sequence (Q99527 whole entry Q138A): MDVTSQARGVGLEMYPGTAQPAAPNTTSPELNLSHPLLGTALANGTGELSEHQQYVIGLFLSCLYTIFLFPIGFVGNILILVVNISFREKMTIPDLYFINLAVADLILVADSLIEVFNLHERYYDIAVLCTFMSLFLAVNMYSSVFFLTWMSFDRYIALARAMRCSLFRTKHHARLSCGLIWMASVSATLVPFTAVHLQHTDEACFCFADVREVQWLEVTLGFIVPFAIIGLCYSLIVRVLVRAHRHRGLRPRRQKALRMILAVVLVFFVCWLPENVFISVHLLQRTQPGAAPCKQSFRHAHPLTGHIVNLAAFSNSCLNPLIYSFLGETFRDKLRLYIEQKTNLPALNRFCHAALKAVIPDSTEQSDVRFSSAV
- measurement_parameters: stable HEK293, HA-tagged Q138^3.33A; NaHCO3; four-parameter fit
pEC50: −log10 of the molar value.

- molecule: "O=C(O)O [bicarbonate]"
  pEC50: 1.97

---

- target_under_test: human GPR30 S134^3.29A mutant (Homo sapiens, UniProt Q99527, S134A)
- Sequence (Q99527 whole entry S134A): as the sequence (Q99527 whole entry Q138A) above, with S134A, A138Q counted along it
- measurement_parameters: stable HEK293, HA-tagged S134^3.29A; NaHCO3; four-parameter fit
reported_metric: EC50 (mM)

- compound: "O=C(O)O [bicarbonate]"
  target_under_test: "human GPR30 S134^3.29A mutant (Homo sapiens, UniProt Q99527, S134A)"
  reported_metric: "EC50"
  recorded_result: 4.97

---

- target_under_test: human GPR30 D210^ECL2A mutant (Homo sapiens, UniProt Q99527, D210A)
- measurement_parameters: stable HEK293, HA-tagged D210^ECL2A; NaHCO3; four-parameter fit

- compound: "O=C(O)O [bicarbonate]"
  endpoint_unit: "mM"
  EC50: 5.41
